The origin of these recorded values is the Immune Epitope Database (IEDB).

- experimental_target: HLA-B*18:01
- test_details: IEDB peptide-MHC binding, purified MHC/direct/fluorescence; filed as Kd, often an IC50 or EC50 that approximates it; bounds were set here for any values at or beyond the usual limits of such assays
- measurement_conditions: source organism: Entamoeba histolytica HM-1:IMSS
parameter: Kd

So what's the measured Kd for this one? ETMKPAAMV ≥ 20 µM

* * *

- experimental_target: HLA-B*44:03
- test_details: IEDB peptide-MHC binding, purified MHC/competitive/radioactivity; filed as Kd, often an IC50 or EC50 that approximates it; bounds were set here for any values at or beyond the usual limits of such assays
- measurement_conditions: source organism: Mammarenavirus guanaritoense
parameter: Kd

Recorded Kd for YEERLNEQLL with HLA-B*44:03, please? 14.6 µM

* * *

- experimental_target: HLA-A*29:02
- test_details: IEDB peptide-MHC binding, purified MHC/direct/fluorescence; filed as Kd, often an IC50 or EC50 that approximates it; bounds were set here for any values at or beyond the usual limits of such assays
- measurement_conditions: source organism: Cryptosporidium parvum Iowa II
parameter: Kd

So what's the measured Kd for this one? DHIPIINTL ≥ 20 µM

* * *

- experimental_target: HLA-C*05:01
- test_details: IEDB peptide-MHC binding, purified MHC/direct/fluorescence; filed as Kd, often an IC50 or EC50 that approximates it; bounds were set here for any values at or beyond the usual limits of such assays
- measurement_conditions: source organism: Mycobacterium tuberculosis C
parameter: pKd
pKd (log units): -log10 of the concentration in mol/L.

Recorded pKd for LYDAVAALF with HLA-C*05:01, please? 7.14

* * *

- experimental_target: HLA-A*02:01
- test_details: IEDB peptide-MHC binding, purified MHC/competitive/fluorescence; bounds were set here for any values at or beyond the usual limits of such assays
- measurement_conditions: source organism: Sudan ebolavirus
parameter: IC50 (µM)
Kindly provide the numeric value in µM only, without the unit symbol.

sequence_string: FQLNDTIHL
IC50 [µM]: 1.52
--
sequence_string: WTLDANINA
IC50 [µM]: 3.85
--
sequence_string: QLANETTQA
IC50 [µM]: 25.9
--
sequence_string: RWGFRSGVP
IC50 [µM]: 16.4

Now let's try a different one.
So what's the measured IC50 for this one? ITTAVKTVL 55.3

* * *

- experimental_target: HLA-C*05:01
- test_details: IEDB peptide-MHC binding, purified MHC/direct/fluorescence; filed as Kd, often an IC50 or EC50 that approximates it; bounds were set here for any values at or beyond the usual limits of such assays
- measurement_conditions: source organism: Mycobacterium tuberculosis H37Ra
parameter: Kd

Recorded Kd for FPRYPLNVL with HLA-C*05:01, please? ≥ 20 µM

* * *

# reported Kd; entries follow
- experimental_target: HLA-A*11:01
- test_details: IEDB peptide-MHC binding, purified MHC/competitive/radioactivity; filed as Kd, often an IC50 or EC50 that approximates it; bounds were set here for any values at or beyond the usual limits of such assays
- measurement_conditions: source organism: Mammarenavirus machupoense
Write the numeric value and follow it with the unit.

sequence_string: KSIQKNTIFK
parameter: Kd
result: 5.35 nM

Now let's try a different one.
So what's the measured Kd for this one? SSFDYCSTNH 1890 nM

* * *

- experimental_target: HLA-A*11:01
- test_details: IEDB peptide-MHC binding, purified MHC/competitive/radioactivity; filed as Kd, often an IC50 or EC50 that approximates it; bounds were set here for any values at or beyond the usual limits of such assays
- measurement_conditions: source organism: SARS coronavirus Tor2
# reported Kd; entries follow
Kindly provide the numeric value in nM only, without the unit symbol.

sequence_string: HQNSKKTTK
unit_abbrev: nM
number: 2080

So what's the measured Kd for this one? LLSGHNLAK 90.9

So what's the measured Kd for this one? QLQLLMPLK 14.3

So what's the measured Kd for this one? TLEEAKTALK 4630

So what's the measured Kd for this one? LTRNPAWRK 3950

So what's the measured Kd for this one? GTSWFITQR 6.53

So what's the measured Kd for this one? TQVYIAVNDK 720

So what's the measured Kd for this one? AIMQVFFGY 1.39

* * *

- experimental_target: HLA-A*03:01
- test_details: IEDB peptide-MHC binding, purified MHC/competitive/radioactivity; filed as Kd, often an IC50 or EC50 that approximates it; bounds were set here for any values at or beyond the usual limits of such assays
- measurement_conditions: source organism: Vaccinia virus WR
# reported pKd; entries follow
pKd (log units): -log10 of the concentration in mol/L.

Illustrative cases are given below, each with its answer.
sequence_string: SLVENNFFTK
pKd: 6.64

sequence_string: ILARNEEGR
pKd: 4.78

So what's the measured pKd for this one? YLRLYIILAR 6.80

So what's the measured pKd for this one? YSISNDLLY 5.92

So what's the measured pKd for this one? KLDNHDILTY 6.98

So what's the measured pKd for this one? MFMLIFNVK 5.78

So what's the measured pKd for this one? SFLRKIGDK 5.12

So what's the measured pKd for this one? IAHINTLIQY 6.42

So what's the measured pKd for this one? IMSIGFEAR 5.31

So what's the measured pKd for this one? FIRRKYLIY 5.82

So what's the measured pKd for this one? KIDKLTFQIY 5.90

* * *

- experimental_target: HLA-A*33:01
- test_details: IEDB peptide-MHC binding, purified MHC/competitive/radioactivity; filed as Kd, often an IC50 or EC50 that approximates it; bounds were set here for any values at or beyond the usual limits of such assays
- measurement_conditions: source organism: Mammarenavirus juninense
parameter: Kd

So what's the measured Kd for this one? GKQYIHCFRK ≥ 29.5 µM

* * *

- experimental_target: HLA-A*31:01
- test_details: IEDB peptide-MHC binding, purified MHC/competitive/fluorescence; filed as Kd, often an IC50 or EC50 that approximates it; bounds were set here for any values at or beyond the usual limits of such assays
- measurement_conditions: source organism: Influenza A virus H3N2
parameter: Kd

Recorded Kd for SFSFGGFTF with HLA-A*31:01, please? ≥ 20 µM

* * *

- experimental_target: HLA-A*02:19
- test_details: IEDB peptide-MHC binding, purified MHC/competitive/fluorescence; filed as Kd, often an IC50 or EC50 that approximates it; bounds were set here for any values at or beyond the usual limits of such assays
- measurement_conditions: source organism: Yersinia pestis Nepal516
parameter: Kd

Recorded Kd for SMLCWLGMT with HLA-A*02:19, please? ≥ 20 µM

* * *

- experimental_target: HLA-A*32:07
- test_details: IEDB peptide-MHC binding, purified MHC/competitive/fluorescence; filed as Kd, often an IC50 or EC50 that approximates it; bounds were set here for any values at or beyond the usual limits of such assays
- measurement_conditions: source organism: Entamoeba histolytica
parameter: Kd

Recorded Kd for SYMSTFPLF with HLA-A*32:07, please? 0.5 nM

* * *

- experimental_target: HLA-A*68:02
- test_details: IEDB peptide-MHC binding, purified MHC/competitive/fluorescence; filed as Kd, often an IC50 or EC50 that approximates it; bounds were set here for any values at or beyond the usual limits of such assays
- measurement_conditions: source organism: Entamoeba histolytica
parameter: Kd

So what's the measured Kd for this one? RASHFRKLF ≥ 20 µM

* * *

- experimental_target: HLA-B*15:01
- test_details: IEDB peptide-MHC binding, purified MHC/direct/fluorescence; filed as Kd, often an IC50 or EC50 that approximates it; bounds were set here for any values at or beyond the usual limits of such assays
- measurement_conditions: source organism: Salmonella enterica
parameter: Kd

So what's the measured Kd for this one? WTDLYTSMS ≥ 20 µM

* * *

- experimental_target: HLA-A*02:01
- test_details: IEDB peptide-MHC binding, purified MHC/competitive/fluorescence; filed as Kd, often an IC50 or EC50 that approximates it; bounds were set here for any values at or beyond the usual limits of such assays
- measurement_conditions: source organism: Campylobacter jejuni subsp. jejuni NCTC 11168 = ATCC 700819
parameter: Kd

So what's the measured Kd for this one? AELIDSFTW ≥ 20 µM

* * *

- experimental_target: HLA-A*26:01
- test_details: IEDB peptide-MHC binding, purified MHC/competitive/fluorescence; filed as Kd, often an IC50 or EC50 that approximates it; bounds were set here for any values at or beyond the usual limits of such assays
- measurement_conditions: source organism: Four Corners hantavirus
parameter: Kd

So what's the measured Kd for this one? PELGAFFAI ≥ 20 µM

* * *

- experimental_target: HLA-B*18:01
- test_details: IEDB peptide-MHC binding, purified MHC/direct/fluorescence; filed as Kd, often an IC50 or EC50 that approximates it; bounds were set here for any values at or beyond the usual limits of such assays
- measurement_conditions: source organism: Camelpox virus M-96
parameter: Kd (nM)
Kindly provide the numeric value in nM only, without the unit symbol.

So what's the measured Kd for this one? LEYGANYFL 11.7
